Parameter normalized growth: see the listing below.
Assay: chemical genetic growth profiling, strain panel (AID 1159580);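 also: tested at 20 µM; growth read once vehicle control cultures reached saturation at 30 °C; 1 = growth at the plate median or of vehicle wells; lower values mean less growth of the strain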
Details: S. cerevisiae deletion strains, growth OD, locus YHR013C, strain ard1, active compounds read low
About 2,000 (36%) of roughly 5,500 compounds were called active. Roughly 18% stayed inconclusive and do not appear here. The list shows a part of the results.
Output: the number by itself.

Worked examples, 5 molecules total:
| MOLECULE | normalized growth |
| --- | --- |
| C=CC[C@]1(O)CCC2C3CCC4=CC(=O)CCC4=C3C=C[C@@]21C (some centres undefined) | 0.935 |
| COC(=O)[C@@H]1OC(=O)C2OC23[C@@]1(C)CCC1[C@]2(C)C(C[C@H](O)[C@]13C)C(C)(C)[C@H](OC(C)=O)C[C@@H]2OC(C)=O (some centres undefined) | 1.02 |
| CC[C@@H](C(=O)C(C)[C@@H](O)[C@H](C)CCc1ccc(C)c(O)c1C(=O)O)C1OC(CC)(C2CC[C@](O)(CC)[C@H](C)O2)C[C@@H]1C (some centres undefined) | 1.1 |
| CCn1cc(C(=O)O)c(=O)c2cc(F)c(N3CCNC(C)C3)c(F)c21 (centres undefined) | 0.984 |
| C[C@]12CCC(=O)C=C1C=CC1C2CC[C@@]2(C)C1CC[C@@]2(O)CCC(=O)O (some centres undefined) | 1.02 |

q: // lookup normalized growth for CC#CC1(O)CCC2C3CCC4=CC(=O)CCC4=C3C(c3ccc(N(C)C)cc3)CC21C (centres undefined)
a: 0.995

q: Further, for "C[C@H]1COc2c(N3CCN(C)CC3)c(F)cc3c(=O)c(C(=O)O)cn1c23" ?
a: 1.02

q: Now try "CCN(CC)Cc1ccc(Nc2ccnc3cc(Cl)ccc23)cc1O" .
a: 0.96

q: Try this molecule next: "CCn1cc(C(=O)O)c(=O)c2cc(F)c(N3CCNCC3)nc21"
a: 0.966

Every entry's value here was drawn from PubChem BioAssay AID1159580.
